The reported numbers originate from PubChem BioAssay (NCI).

- Test system: IGROV1 ovarian
- EXPERIMENT: NCI tumour cell line growth inhibition, 48 h
REPORTED ENDPOINT: TGI

O=C1CSC(/C=C/c2ccccc2)N1c1nc2cc3sc(N4C(=O)CSC4/C=C/c4ccccc4)nc3cc2s1 (configuration not stated)    > 100 µM
CN(C)CCCc1cccc2[nH]c3c(c12)CN(C)CC3    > 100 µM
C=C1C(=O)O[C@H]2C/C(C)=C/CC[C@@]3(C)O[C@](C)(CC[C@@H]3I)[C@@H](I)C[C@@H]12    6.62 µM
CC(=O)c1ccc2c(c1)c1cc(C(C)=O)ccc1n2CCNC(C)C    6.73 µM
CN(CCN1C(=O)c2cc([N+](=O)[O-])cc3cc([N+](=O)[O-])cc(c23)C1=O)CCN1C(=O)c2cc([N+](=O)[O-])cc3cc([N+](=O)[O-])cc(c23)C1=O    5.51 µM

Would you mind giving TGI for every compound in the list below?
1. CC1(C)O[C@@H]([C@H](O)CO)[C@H](O)[C@@H](C2SCCCS2)O1
2. CNNC1=NS(=O)(=O)c2cc(C#N)c(Cl)cc2S1
3. Cc1cc(S(=O)(=O)Nc2n[nH]c(Nc3ccc(Cl)cc3)n2)c(S)cc1Cl
4. O=C1NC(N2CCOCC2)=N/C1=C\c1ccc(Cl)cc1
5. CCOC(=O)c1c[nH]c2c(Sc3ccccc3)nccc2c1=O
6. COc1ccccc1NC(=S)N/N=C/c1c(C)n(C)n(-c2ccccc2)c1=O
7. N#Cc1c(-c2ccc(Cl)c(Cl)c2)c(-c2ccc(Cl)c(Cl)c2)nn(CC(=O)O)c1=O
8. C/C(=N\NC(=S)N1CCCCC1)c1ccccn1

Result string:
1. > 100 µM
2. > 10 µM
3. > 100 µM
4. > 100 µM
5. > 100 µM
6. > 100 µM
7. > 100 µM
8. 5.79 µM

---

- Tested on: OVCAR-3 ovarian
- EXPERIMENT: NCI tumour cell line growth inhibition, 48 h
REPORTED ENDPOINT: TGI

Use these answered entries as a reference point.
O=C(CSc1nc2ccc([N+](=O)[O-])cc2s1)c1ccc2ccccc2c1    > 100 µM
O=C(O)CN1C=C(C(=O)c2cc3ccccc3n2S(=O)(=O)c2ccccc2)CCC1    > 100 µM

Would you mind giving TGI for every molecule in the list below?
1. COc1cc(C2Cc3ncccc3-c3[nH]c(=O)c4cccnc4c32)cc(OC)c1OC (centres undefined)
2. O=C(NC1(c2cc3ccccc3s2)CCCCC1)C1CCC1

Result string:
1. 5.49 µM
2. > 100 µM

---

Please go through the items and note down their TGI.
- Test system: A549 NSCLC
- EXPERIMENT: NCI tumour cell line growth inhibition, 48 h

Use these answered entries as a reference point.
Cc1cc(O)c(=O)cc2c1C[C@H]1CC(C)(C)/C=C/C[C@]3(C)Oc4cc(=O)c(O)cc(C)c4C[C@H]3C[C@H](O)[C@@]1(C)O2    2.13 µM
CC#CC(O)(C(=O)OCCCN(C)C)C1CCCCC1 (stereo not given)    > 100 µM
CCCCNC(=O)c1cc2c(cc1Cl)Sc1nccn1S2(=O)=O    > 100 µM
C#C[C@]1(O)CC[C@H]2[C@@H]3CCC4=C/C(=N/OCCN(C)C)CC[C@]4(C)[C@H]3CC[C@@]21C    > 100 µM

# context switch: different molecule, same TGI
Query string: // lookup TGI for c1ccc2sc(SCCSc3nc4ccccc4s3)nc2c1
Result string: > 100 µM

---

- Tested on: HCC-2998 colon
- EXPERIMENT: NCI tumour cell line growth inhibition, 48 h
REPORTED ENDPOINT: GI50

COCC1CCCN1c1ccc(C=N/C(C#N)=C(\N)C#N)cc1 (stereo unspecified)    > 100 µM
CCOC(=O)c1cc(C(=O)c2cc(OC)c(OC)c(OC)c2)n2ncccc12    2.1 µM
O=Nc1ccc(O)c(=O)cc1    3.35 µM
CC(=O)Nc1ccc2c(c1)C(c1ccccc1Cl)=Nc1c(n[nH]c1C)N2    16.7 µM
COc1ccc(C(c2cc(OC)c(OC)c(OC)c2)n2ccnc2)cc1O (stereo unspecified)    1.72 µM

# context switch: different compound, same GI50
Query string: // lookup GI50 for Fc1cccc(COc2ccc(Nc3ncnc4sc(-c5cccs5)cc34)cc2Cl)c1
Result string: 5.25 µM

---

- Test system: HOP-62 NSCLC
- EXPERIMENT: NCI tumour cell line growth inhibition, 48 h
REPORTED ENDPOINT: TGI

Use these answered entries as a reference point.
CC(=O)Nc1ccc2c(c1)C(c1ccccc1Cl)=Nc1c(n[nH]c1C)N2    > 25 µM
CC1=Nc2ccccc2S/C1=C(/C)NNS(=O)(=O)c1ccc(C)cc1    > 100 µM

Query string: // lookup TGI for N=C1OC(CN2CCN(c3ccccc3)CC2)CN1C(=S)Nc1ccccc1 (stereo not drawn)
Result string: > 100 µM

---

- Tested on: SK-MEL-28 melanoma
- EXPERIMENT: NCI tumour cell line growth inhibition, 48 h
Please go through the items and note down their TGI.

O=c1[nH]c(Cc2ccccc2)nc2c1sc1nc3ccccc3n12    > 100 µM

Would you mind giving TGI for every molecule in the list below?
1. COc1ccc2c(c1OC)C[C@@H]1c3c(cc4c(c3-2)OCO4)CCN1C
2. Fc1cc2[nH]ncc2c2c3c(c(-c4cn[nH]c4C(F)(F)F)nc12)CCCC3
3. O=c1c2c(=NCCN3CCCC3)cc3c(=O)n(CCCN4CCOCC4)c(=O)c4c(-c5ccc(CN6CCCC6)cc5)cc(c(O)n1CCCN1CCOCC1)c2c4-3
4. Cc1ccn2c(=O)cc(CN3CCOCC3)nc2c1
5. O=Nc1ccc(O)c(=O)cc1
6. O=C(O)c1ccc(C(=O)c2ccccc2C(=O)O)cc1C(=O)O
7. COc1cc(Nc2nc3cc(N)cc(N)c3nc2-c2ccccc2)cc(OC)c1OC

Result string:
["> 100 µM", "5.35 µM", "0.557 µM", "> 100 µM", "7.02 µM", "> 100 µM", "20.7 µM"]

Would you mind giving TGI for every molecule in the list below?
1. CN(C)c1ccc(C=Nc2ccc(-c3nc4ccccc4[nH]3)cc2)cc1
2. COC(=O)C1CCc2c1c(=O)n1c([nH]c3ccccc31)c2C#N (centres undefined)
3. Cc1cc(C)n(CC(Cn2nc(C)cc2C)=C(/C(Cl)=C(/Cl)Nc2ccc([N+](=O)[O-])cc2)[N+](=O)[O-])n1
4. Cc1cccc(N(C)C(=O)[C@@H]2[C@H](O)CCN2c2nc(C)cc(C(F)(F)F)c2C#N)c1
5. Cn1c(=O)[nH]c2nncnc2c1=O
6. CCCCCN(CCCCC)C(=O)[C@@H](CCC(=O)O)NC(=O)c1cc2ccccc2[nH]1

Result string:
> 100 µM
> 100 µM
29 µM
> 100 µM
> 625 µM
57.5 µM

---

Please go through the items and note down their TGI.
- System: MOLT-4 leukemia
- EXPERIMENT: NCI tumour cell line growth inhibition, 48 h

Use these answered entries as a reference point.
Fc1cccc(COc2ccc(Nc3ncnc4sc(-c5cccs5)cc34)cc2Cl)c1    > 25 µM
O=c1oc2ccccc2nc1/C=C(\O)c1ccc(Cl)cc1    > 100 µM

Would you mind giving TGI for every compound in the list below?
1. O=C(N/C(=C\c1ccc(Cl)cc1)c1nc2ccccc2[nH]1)c1ccccc1
2. CC(C)C1=CC(=O)C(C)(C2C(O)CC3(C)C4CC=C5C(CCC(OC6OC(CO)C(O)C(O)C6OC6OC(C)C(O)C(O)C6O)C5(C)C)C4(C)C(=O)CC23C)O1 (configuration not stated)

Result string:
1. 43.2 µM
2. > 100 µM

Would you mind giving TGI for every compound in the list below?
1. C#C[C@]1(O)CC[C@H]2[C@@H]3CCC4=C/C(=N/OCCN(C)C)CC[C@]4(C)[C@H]3CC[C@@]21C
2. Cc1cc2nc3c4cc(O)ccc4n(CCN(C)C)c3nc2cc1C

Result string:
1: > 100 µM; 2: 11.2 µM

---

Please go through the items and note down their TGI.
- Tested on: HS 578T breast
- EXPERIMENT: NCI tumour cell line growth inhibition, 48 h

Use these answered entries as a reference point.
O=C(O)c1ccc(C(=O)c2ccccc2C(=O)O)cc1C(=O)O    > 100 µM
c1ccc2sc(SCCSc3nc4ccccc4s3)nc2c1    > 100 µM

# context switch: different molecule, same TGI
Query string: // lookup TGI for Cc1cccc(N(C)C(=O)[C@@H]2[C@H](O)CCN2c2nc(C)cc(C(F)(F)F)c2C#N)c1
Result string: > 100 µM
